Sourced from paper PMC8809517

# Assay System: T1, GFP-9S library array, motif 4 ND N98R;D124W (synthetic construct, N98R;D124W)
# T1 chain: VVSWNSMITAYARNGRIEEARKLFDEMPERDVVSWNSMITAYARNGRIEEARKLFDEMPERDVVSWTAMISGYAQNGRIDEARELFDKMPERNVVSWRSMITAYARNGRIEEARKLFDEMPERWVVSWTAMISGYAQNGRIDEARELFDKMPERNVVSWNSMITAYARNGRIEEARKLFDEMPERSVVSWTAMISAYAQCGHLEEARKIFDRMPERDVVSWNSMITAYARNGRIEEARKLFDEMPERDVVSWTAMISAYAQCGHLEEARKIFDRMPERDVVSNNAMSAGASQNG
# Assay Comment: high-throughput RNA pulldown from lysate on Ni-NTA beads; HRP: 50 mM Tris pH 8, 150 mM NaCl, 1 mM beta-mercaptoethanol, 50 ug/ml BSA, 3 ug/ml yeast RNA, 0.5% heparin; ITC and FP: Tris pH 8, 200 mM KCl, 5% glycerol; MST: 50 mM Tris pH 8, 200 mM NaCl, 1 mM DTT, BSA, heparin, 0.05% Tween 20
# Study Conditions: tags: N-terminal His-eGFP; label: 5' Cy5
Measurement Type: Kd (nM)
Value expressed in nM; do not type the unit.

Asked: State the recorded Kd for this entry: AUUAGACGUGA (ssRNA) [Cy5-rpoA-G]
Given back: 88.7

Asked: State the recorded Kd for this entry: AUUACACGUGA (ssRNA) [Cy5-rpoA]
Given back: 147
